Hey, just so you know, these numbers are from PubChem BioAssay (NCI).

Please go through the items and note down their growth.
- Tested on: PC-3 prostate
- Test details: NCI-60 one-dose screen, 48 h (100 = growth as untreated, 0 = no growth, -100 = all killed)
- Condition summary: 10 µM unless noted
- Protocol: Growth inhibition of the PC-3 human tumor cell line is measured as a screen for anti-cancer activity. Cells are grown in 96 well plates and exposed to the test compound for 48 hours. Compounds are tested at a single concentration, which is 10^-5 M for most compounds. The reported endpoint is percent growth (GI% or GIPRCNT), where numbers from 0 - 100% represent growth inhibition, and numbers from -100% - 0 represent cell death. For example, a value of 40 represents 60% growth inhibition. […]
The panel holds about 83,000 compounds, 20% with a hit somewhere; the sample as a whole holds those more often. Calls of active or inactive are those of the source. Rule for the calls: active = growth percent below 10; inactive = the rest.

Report growth for `COc1cc2c(cc1O)c(=O)n(CCN(C)C)c1c3cc4c(cc3ncc21)OCO4` tested on PC-3 prostate.
-9.82% (active)

Request: `COc1cc2nc(Nc3cccc(Cl)c3)nc(N)c2cc1OC`
53.9% (inactive)

# repeat for `Nc1ccc(S(=O)(=O)O)c2cc(S(=O)(=O)O)cc(O)c12`
97.8% (inactive)

Try this molecule next: `O=c1nc2c(-c3nc4ccccc4s3)n[nH]n2c2sc3c(c12)CCCC3`
79.6% (inactive)

Consider next the molecule `CC/C(=C(/c1ccc(Cl)cc1)c1ccc(OCCN2CCCCC2)cc1)c1ccc(Cl)cc1` in the same way.
63.7% (inactive)

Please give the result for `Cn1cnc2c(F)c(Nc3ccc(Br)cc3Cl)c(C(=O)NOCCO)cc21` too.
90.7% (inactive)

# iterate: COc1cc2c(cc1OCCCCCN1CCN(c3ncnc4ccccc34)CC1)N=CC1CCCN1C2=O (stereo unspecified)
-38.6% (active)

`Cc1cccc(NC(=O)[C@@H]2c3ccccc3C(=O)N(c3ccc(Cl)cc3)[C@H]2c2ccc(Cl)cc2)n1` ?
17.1% (inactive)

Cool, now `CCN(CC)CCOc1ccc(/C(=C(\C)c2ccc(Cl)cc2)c2ccc(Cl)cc2)cc1`
70.7% (inactive)

// query: `O=C(CNc1nnc(-c2ccc(Cl)cc2)o1)Nc1ccc(-c2nc3ccccc3s2)cc1`
88.6% (inactive)

One more molecule: `Nc1c(C(=O)c2ccccc2)sc2nc(-c3cccs3)cc(-c3cccs3)c12`
33% (inactive)

Here is the next molecule: `CC[n+]1c(/C=C/C=C2\N(C)c3ccccc3C2(C)C)sc2ccccc21`
17.4% (inactive)

Can you check `CC/C=C\C[C@H]1C/C=C2/C(=O)C=C[C@@H]2C/C=C\CCCC(=O)O1` next?
-42.6% (active)

Here is the next molecule: `CSc1nc2ncnc(SC)c2[nH]1`
91.6% (inactive)

Also `CN1CCN(CC(=O)Nc2ccc(-c3nc4ccccc4s3)cc2)CC1` ?
83.6% (inactive)

Then what about the molecule CC1(O)CCC2CC3OC3(C)CCC3OC3(C)C(O)CC1C2(C)C (stereo unspecified) ?
87.4% (inactive)

Entry to check: `O=C(CNc1nc(-c2ccc(Cl)cc2)cs1)Nc1ccc(-c2nc3ccccc3s2)cc1`
90.7% (inactive)

And what about the molecule COC1CCC(N2C(=O)CNc3ncc(-c4ccc(C(C)(C)O)nc4)nc32)CC1 (stereo unspecified) ?
8.06% (active)

Consider next the molecule `Cc1ccc(-c2cc3c(SCC(=O)Nc4cc(C(F)(F)F)ccc4Cl)nccn3n2)cc1` in the same way.
41.1% (inactive)

For `O=C(NC[C@H](O)CO)c1ccncc1Nc1ccc(I)cc1F` then?
86.4% (inactive)

Field entry: `CCc1nc2ccc(Cc3ccc(C(=O)NO)cc3)cc2c(=O)n1CCc1ccccc1`
-66.5% (active)

Next molecule: `O=C(CNc1nc2ccccc2s1)Nc1ccc(-c2nc3ccccc3s2)cc1`
95% (inactive)

Follow-up item: `CN(C)C1CCN(C(=O)c2ccc(NC(=O)Nc3ccc(-c4nc(N5CCOCC5)nc(N5CCOCC5)n4)cc3)cc2)CC1`
3.75% [2.5 µM] (active)

Then `O=C(NC1CCNCC1)c1[nH]ncc1NC(=O)c1c(Cl)cccc1Cl` ?
5.97% (active)

How about this molecule: `Clc1ccc(/C=C/c2cc(N3CCOCC3)c3cc(Cl)c(Cl)cc3n2)cc1`
37.2% (inactive)

Also `Cn1cc(-c2cnn3c(N)c(Br)c([C@@H]4CCCNC4)nc23)cn1` , if possible.
42.8% (inactive)
